# assayed.target: HLA-DRB1*1501 (Homo sapiens, UniProt P01903+P01911)
# protocol.text: Peptide-MHCII competition binding assay
# conditions: competition ELISA, pH 5.9, peptide 90.000nM – 0.9nM, HLA-DRB1 30 nM, biotinylated peptide 15nM, duplicate wells; ratios below 10 = good binding; reference peptide ENPVVHFFKNIVTPR
value.kind: Ratio IC50 DRB1*1501

sequence.content: VHSIFLEGHTFLVRNHRQAS [P285-304, 20-mer FVIII peptide, A1 domain]
value.kind: Ratio IC50 DRB1*1501
experimental.result: 11
//
sequence.content: TQGVKSLLTSMYVKEFLISS [P2264-2283, 20-mer FVIII peptide, C2 domain]
value.kind: Ratio IC50 DRB1*1501
experimental.result: 480
//
sequence.content: DHLFNIAKPRPPWMGLLGPT [P75-94, 20-mer FVIII peptide, A1 domain]
value.kind: Ratio IC50 DRB1*1501
experimental.result: 0.0
//
sequence.content: KLARLHYSGSINAWSTKEPF [P2068-2087, 20-mer FVIII peptide, C1 domain]
value.kind: Ratio IC50 DRB1*1501
experimental.result: 20
//
sequence.content: LSHVDLVKDLNSGLIGALLV [P178-197, 20-mer FVIII peptide, A1 domain]
value.kind: Ratio IC50 DRB1*1501
experimental.result: 95
//
sequence.content: YDTVVITLKNMASHPVSLHA [P100-119, 20-mer FVIII peptide, A1 domain]
value.kind: Ratio IC50 DRB1*1501
experimental.result: 0.5
//
sequence.content: LGQFLLFCHISSHQHDGMEA [P322-341, 20-mer FVIII peptide, A1 domain]
value.kind: Ratio IC50 DRB1*1501
experimental.result: 0.05
//
sequence.content: KARLHLQGRSNAWRPQVNNP [P2226-2245, 20-mer FVIII peptide, C2 domain]
value.kind: Ratio IC50 DRB1*1501
experimental.result: 0.6

* * *

# assayed.target: HLA-DRB1*0101 (Homo sapiens, UniProt P01903+P01911, A100R/D57E/F55L/F60I/F76Y/I96L/L162R/M171V/P40L/Q125E/R42F/V115G/Y59C)
# protocol.text: Peptide-MHCII competition binding assay
# conditions: competition ELISA, pH 5.9, peptide 90.000nM – 0.9nM, HLA-DRB1 30 nM, biotinylated peptide 15nM, duplicate wells; ratios below 10 = good binding; reference peptide […]
# maps each entry to its Ratio IC50 DRB1*0101

sequence.content: KARLHLQGRSNAWRPQVNNP [P2226-2245, 20-mer FVIII peptide, C2 domain]
Ratio IC50 DRB1*0101: 0.2

sequence.content: VHSIFLEGHTFLVRNHRQAS [P285-304, 20-mer FVIII peptide, A1 domain]
Ratio IC50 DRB1*0101: 163

sequence.content: GHTFLVRNHRQASLEISPIT [P292-311, 20-mer FVIII peptide, A1 domain]
Ratio IC50 DRB1*0101: 34

sequence.content: KKEEYKMALYNLYPGVFETV [P1986-2005, 20-mer FVIII peptide, A3 domain]
Ratio IC50 DRB1*0101: 182

sequence.content: LLTRYLRIHPQSWVHQIALR [P2320-2339, 20-mer FVIII peptide, C2 domain]
Ratio IC50 DRB1*0101: 1

sequence.content: RHYFIAAVERLWDYGMSSSP [P1715-1734, 20-mer FVIII peptide, A3 domain]
Ratio IC50 DRB1*0101: 20.4

sequence.content: SLYISQFIIMYSLDGKKWQT [P2114-2133, 20-mer FVIII peptide, C1 domain]
Ratio IC50 DRB1*0101: 0.2

sequence.content: KLARLHYSGSINAWSTKEPF [P2068-2087, 20-mer FVIII peptide, C1 domain]
Ratio IC50 DRB1*0101: 70.5

sequence.content: YDTVVITLKNMASHPVSLHA [P100-119, 20-mer FVIII peptide, A1 domain]
Ratio IC50 DRB1*0101: 226

sequence.content: TQGVKSLLTSMYVKEFLISS [P2264-2283, 20-mer FVIII peptide, C2 domain]
Ratio IC50 DRB1*0101: 6242

sequence.content: PPIIARYIRLHPTHYSIRST [P2161-2180]
Ratio IC50 DRB1*0101: 1

sequence.content: DHLFNIAKPRPPWMGLLGPT [P75-94, 20-mer FVIII peptide, A1 domain]
Ratio IC50 DRB1*0101: 747

sequence.content: HPQSWVHQIALRMEVLGCEA [P2328-2347, 20-mer FVIII peptide, C2 domain]
Ratio IC50 DRB1*0101: 1.6

sequence.content: LSHVDLVKDLNSGLIGALLV [P178-197, 20-mer FVIII peptide, A1 domain]
Ratio IC50 DRB1*0101: 1.7

sequence.content: INGYIMDTLPGLVMAQDQRI [P1940-1959, 20-mer FVIII peptide, A3 domain]
Ratio IC50 DRB1*0101: 6

Where do these numbers come from? They come from paper PMC10951066.
